List of melting point values.

COMPOUND	OBSERVED
O=C(O)C1CCN(S(=O)(=O)c2ccccc2C(F)(F)F)CC1	127 to 129 °C
CN(C)c1ccc([N+](=O)[O-])cc1C(=O)O	149 to 151 °C
CC(Cl)c1cccc([N+](=O)[O-])c1 (configuration not stated)	33 to 35 °C
Cc1c(C(=O)O)nnn1-c1cccc2cccnc12	188 to 190 °C
O=C(O)COc1cc(Cl)ccc1Cl	146 to 148 °C
O=C(O)/C=C/c1cnn(Cc2ccccc2)c1	118 to 120 °C
CCn1c(=O)c(C(=O)CCl)c(N)n(Cc2ccccc2)c1=O	115 to 117 °C
O=Cc1cn(-c2ccccc2)nc1-c1cccnc1	110 to 112 °C

Task: Can you share its melting point? I mean this compound: NC(=O)c1ccc(N)cn1
Result: 169 to 171 °C

Origin of the recorded values: a melting point compilation (Tetko et al.)
